# system.tested: T1, TNFR1 (Homo sapiens, UniProt P19438)
# T1 chain: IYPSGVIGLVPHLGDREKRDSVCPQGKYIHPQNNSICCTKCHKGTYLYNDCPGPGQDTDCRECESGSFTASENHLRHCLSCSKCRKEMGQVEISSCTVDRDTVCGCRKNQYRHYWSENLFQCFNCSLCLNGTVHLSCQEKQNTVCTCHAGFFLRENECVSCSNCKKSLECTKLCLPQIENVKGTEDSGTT
# assay.details: yeast display SC50
# apparent Kd (screen) listing for each entry below

| binder | unit.info | apparent Kd (screen) |
| --- | --- | --- |
| V71R (designed binder) MTLQELLREEALRRAEAEAFRYALELLAEKFPEQKEYLLDLAEEIESQIRSLSGVDVEDVRKFLDKEWAWRKELLAEHPAELAEVEAARAARLAELRAEVEAKVAA | nM | 24.4 |
| E73C (designed binder) MTLQELLREEALRRAEAEAFRYALELLAEKFPEQKEYLLDLAEEIESQIRSLSGVDVEDVRKFLDKEWAWVKCLLAEHPAELAEVEAARAARLAELRAEVEAKVAA | nM | 0.79 |
| V71E (designed binder) MTLQELLREEALRRAEAEAFRYALELLAEKFPEQKEYLLDLAEEIESQIRSLSGVDVEDVRKFLDKEWAWEKELLAEHPAELAEVEAARAARLAELRAEVEAKVAA | nM | 0.869 |
| R89K (designed binder) MTLQELLREEALRRAEAEAFRYALELLAEKFPEQKEYLLDLAEEIESQIRSLSGVDVEDVRKFLDKEWAWVKELLAEHPAELAEVEAAKAARLAELRAEVEAKVAA | nM | 0.539 |
| D56S (designed binder) MTLQELLREEALRRAEAEAFRYALELLAEKFPEQKEYLLDLAEEIESQIRSLSGVSVEDVRKFLDKEWAWVKELLAEHPAELAEVEAARAARLAELRAEVEAKVAA | nM | 1.27 |
| R50I (designed binder) MTLQELLREEALRRAEAEAFRYALELLAEKFPEQKEYLLDLAEEIESQIISLSGVDVEDVRKFLDKEWAWVKELLAEHPAELAEVEAARAARLAELRAEVEAKVAA | nM | 0.956 |
| W70L (designed binder) MTLQELLREEALRRAEAEAFRYALELLAEKFPEQKEYLLDLAEEIESQIRSLSGVDVEDVRKFLDKEWALVKELLAEHPAELAEVEAARAARLAELRAEVEAKVAA | nM | 22.2 |
| L3C (designed binder) MTCQELLREEALRRAEAEAFRYALELLAEKFPEQKEYLLDLAEEIESQIRSLSGVDVEDVRKFLDKEWAWVKELLAEHPAELAEVEAARAARLAELRAEVEAKVAA | nM | 12.5 |
